Cited source: the supplement of paper PMC9233669

test system: biotinyl-Met-oxazolone; experiment: self-aminoacylation, catalytic enhancement (BMO) (fold over background); higher = more active; k-Seq, kA / k0A0; sequences stand for … in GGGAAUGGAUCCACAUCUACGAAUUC…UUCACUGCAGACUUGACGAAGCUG
Variants at the floor of the assay were thinned out.
The following sequences are listed with their measured self-aminoacylation values.

I am curious: what self-aminoacylation value has been reported for AAGUUUGCUAGUAGUCGCAGG [Fam3.1 aminoacylation ribozyme variant] ? 1.02

I am curious: what self-aminoacylation value has been reported for CAACAGUUCAAGCAAUCGGUC [Fam1B.1 aminoacylation ribozyme variant] ? 1.28

* * *

tested on: biotinyl-Phe-oxazolone; assay: self-aminoacylation, catalytic enhancement (BFO) (fold over background); higher = more active; k-Seq, kA / k0A0; sequences stand for … in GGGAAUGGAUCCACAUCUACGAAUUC…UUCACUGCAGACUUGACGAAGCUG
This sample holds only a part of the variants without activity.
Use 2 as the dividing line for self-aminoacylation, with the line itself on the met side and lower values as not met.

Observe how each entry below is paired with its result.
{"chain.sequence": "AUUACCCUGGACAUCUAGUGA [Fam2.1 aminoacylation ribozyme variant]", "target.or.test.system": "biotinyl-Phe-oxazolone", "label.class": "met"}
{"chain.sequence": "AUUCCCCUGGUCAUCAAGUGA [Fam2.1 aminoacylation ribozyme variant]", "target.or.test.system": "biotinyl-Phe-oxazolone", "label.class": "met"}
{"chain.sequence": "CUACAUCAAACAACCGGUCUG [Fam1A.1 aminoacylation ribozyme variant]", "target.or.test.system": "biotinyl-Phe-oxazolone", "label.class": "not met"}
{"chain.sequence": "AUUCCCCUAGGUCAUAGGGUG [Fam2.2 aminoacylation ribozyme variant]", "target.or.test.system": "biotinyl-Phe-oxazolone", "label.class": "met"}
{"chain.sequence": "CCACACUUCAAGCAUGCGGUC [Fam1B.1 aminoacylation ribozyme variant]", "target.or.test.system": "biotinyl-Phe-oxazolone", "label.class": "not met"}

Evaluate CGACACUUCAAGCACUCGGUC [Fam1B.1 aminoacylation ribozyme variant] : self-aminoacylation at minimum 2? not met

Evaluate CUACUUGAAACAACCGGUCUG [Fam1A.1 aminoacylation ribozyme variant] : self-aminoacylation at minimum 2? not met
